Assay: PSAC antagonists in infected red cells, primary screen, cell-based, P. falciparum Indochina, OD700, 18 h (AID 1157)
Details: P. falciparum Indochina infected erythrocytes, osmotic lysis OD700, 18 h; higher = more signal, called active from +8 up or from −8 down

compound	z-score
COc1ccc([Si](C)(C)[C@@H]2[C@@H](CCn3cc([C@H](O)c4ccccc4)nn3)O[C@]3(C(=O)N(c4ccccc4)c4ccccc43)[C@H]2C)cc1	-1.63
C=CCOC(=O)[C@H]1[C@@H]2C(=O)O[C@@H](c3ccccc3)[C@@H](c3ccccc3)N2[C@@H](c2ccc(OCCOC(=O)[C@H]3C[C@H]4C(=O)N[C@@H](CCCCNC(C)=O)C(=O)N4[C@H]3c3cccc(OCCO)c3)cc2)[C@]12C(=O)Nc1ccc(I)cc12	-1.61
COCC(=C=CC[C@H](O)c1cccc(OCCO)c1)C[C@H](O)COCc1ccccc1	0.404
COc1cc2c(cc1OC)CN(C(=O)[C@@H]1[C@H]3C(=O)O[C@H](c4ccccc4)[C@H](c4ccccc4)N3[C@H](c3ccc(O)cc3)[C@@]13C(=O)Nc1ccc(C#CCCO)cc13)CC2	0.165
C=C(CCCC)C(=O)CC[C@H](OC(C)=O)c1ccc(OCCO)cc1	-0.623
C=CCC(OC(C)=O)[C@@H]1[C@@H](N(Cc2ccc(-c3cccc(C(F)(F)F)c3)o2)C(=O)c2cccc3ccccc23)c2cc(OCCCO)ccc2N1C(=O)Cc1ccc(OC)cc1 (some centres not stated)	0.702
CCOC(=O)C1=C[C@@H](C(C)(C)C)N(S(=O)(=O)c2ccc(C)cc2)[C@H]1c1ccc(C)cc1	-0.0532

----------
Molecular target: Luciferin 4-monooxygenase (Photinus pyralis)
Experiment: firefly luciferase enzyme inhibitors, primary screen, biochemical, luminescence, purified enzyme, 2006 set (AID 1141);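 further: cell-free assay with purified firefly luciferase at 100 ng per well in PBS; test concentration not given here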
Conditions: SteadyGlo luminescence, 30 min, higher = more signal, called active from +8 up or from −8 down
measuredProperty: z-score

molecule	measuredProperty	reported
C=C(C)[C@@H]1CC=C(C(O)C2C=CC3C(=O)N(c4ccccc4)C(=O)C3N2Nc2ccc(C#N)cc2)CC1 (stereo not given in full)	z-score	-0.251
CN1C(=O)C2C(C1=O)C1C=C(CCCO)C2C(C2CC2)N1Cc1cc2c(cc1Br)OCO2 (stereo not given)	z-score	-0.0255
C=C(COC)C(=O)CC[C@H](OC(=O)c1cccnc1)c1ccc(CO)o1	z-score	-0.721
C=CCC(OC(C)=O)[C@@H]1[C@@H](N(Cc2cccc3ccccc23)C(=O)c2ccc(-c3ccccc3)cc2)c2cc(OCCCO)ccc2N1C(=O)c1ccc(-c2ccccc2)cc1 (stereo not given in full)	z-score	-0.0873
CC=CC(O)C1C=CC2C(=O)NC(=O)C2N1Nc1ccccn1 (stereo not given)	z-score	-0.0429
CN(C)C(=O)[C@]1(CCS(=O)(=O)c2ccccc2)N=C(c2ccc(OCCCO)cc2)O[C@@H]1c1ccccc1	z-score	0.396
COc1ccc([Si](C)(C)[C@H]2[C@H](CCO)O[C@@]3(C(=O)N(Cc4ccccc4)c4ccc(N5CCOC5=O)cc43)[C@@H]2C)cc1	z-score	0.446
O=C1[C@@H]2[C@@H](CC(COc3ccccc3)=C3[C@@H](CCc4ccccc4)OB(O)C[C@@H]32)C(=O)N1Cc1ccccc1	z-score	-1.06
CN1C(=O)[C@@H]2[C@@H](CC(COc3ccccc3)=C([C@H](O)CCc3ccccc3)[C@@H]2CO)C1=O	z-score	-1.4
COCCOC(=O)N1C(=O)[C@@]2(c3ccccc31)[C@H](c1ccccc1OCCO)N1[C@H](c3ccccc3)[C@H](c3ccccc3)OC(=O)[C@H]1[C@@H]2C(=O)N1CCCCCCC1	z-score	-0.507

----------
Assay: small-molecule microarray binders of probe aLefty2, primary screen, biochemical, biotinylated probe, 635/667 nm fluorescence (AID 1094);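 further: score merges spot fluorescence near 667 nm with spot signal-to-noise ratio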
Conditions: higher = more signal
Reported composite z-score values follow for various compounds
measuredProperty: composite z-score

compound	measuredProperty	reported
CCN(CC)c1ccc(N2CC=CC34O[C@@H]5/C=C\CCC(C)OC(=O)C5[C@H]3C(=O)N(C(C)CO)[C@@H]4C2=O)cc1 (some centres not stated)	composite z-score	-0.149
COc1cccc(/C=C(\C#N)C(=O)Nc2c(C)n(C)n(-c3ccccc3)c2=O)c1	composite z-score	0.0852
CCCCNC(=O)c1ccc(C#C[Si](C(C)C)(C(C)C)C(C)C)c(OC(C)=O)c1	composite z-score	-0.0916
COC(=O)C(CC#Cc1ccc2c(c1)[C@]1(C(=O)N2)[C@H](c2ccc(O)cc2)N2[C@H](c3ccccc3)[C@H](c3ccccc3)OC(=O)[C@H]2[C@@H]1C(=O)N1CCCCCCC1)C(=O)OC	composite z-score	1.5
O=C1O[C@H](c2ccccc2)[C@H](c2ccccc2)N2[C@H]1[C@@H](C(=O)N1CCCCCCC1)[C@]1(C(=O)Nc3ccc(C#CC4(O)CCCCCC4)cc31)[C@H]2c1ccccc1OCCO	composite z-score	1.91
O=C1OCCC=C[C@H]2OC34C=CCN(c5ccc(Cl)cc5)C(=O)[C@H]3N(CCCCCCO)C(=O)[C@@H]4C12 (some centres not stated)	composite z-score	-0.139
Cc1ccc([C@H]2C(C(=O)O)=C[C@@H](C(C)(C)C)N2S(=O)(=O)c2ccc(C)cc2)cc1	composite z-score	0.118
COc1ccc([Si](C)(C)[C@@H]2[C@@H](CC(=O)N3Cc4ccccc4C[C@H]3CO)O[C@]3(C(=O)N(c4ccccc4)c4ccccc43)[C@H]2C)cc1	composite z-score	0.541
COC(=O)[C@@]1(Cc2ccc(OC)cc2)[C@H]2c3cc(C(=O)N4CCCC4)n(Cc4ccc(S(C)(=O)=O)cc4)c3C[C@H]2CN1C(=O)c1ccccc1	composite z-score	0.205
COc1ccc(CCNC(=O)[C@@]2(Cc3ccccc3I)c3ccccc3C(=O)N(Cc3ccccc3Cl)[C@H]2c2ccc(CO)cc2)cc1	composite z-score	0.23
CCOC(=O)C1=C[C@@H](C(C)(C)C)N(S(=O)(=O)c2ccc(C)cc2)[C@H]1c1cccc(Cl)c1	composite z-score	0.195
COC(=O)c1c2oc(c1C(=O)OC)C(=O)N1CCC[C@H]1Cn1nncc1CN(Cc1ccccc1)C(=O)N[C@H](CO)CC2	composite z-score	-0.116

----------
Entries and their composite z-score
System: Fibrinogen (Alexa647-labelled)
Assay: fibrinogen binders on compound microarrays, profiling panel, artefact control for SMM control-protein annotation, biochemical, small-molecule microarray, 635/667 nm fluorescence (AID 1131);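 further: z-score merges 667 nm fluorescence with per-spot signal-to-noise over triplicate slides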
Conditions: fibrinogen-A647 binding fluorescence, higher = more signal
measuredProperty: composite z-score

structureAsSmiles	reported
[N-]=[N+]=NC[C@H](Cc1ccccc1)NC(=O)c1ccccc1	-0.0208
C=C(/C(=C/C[C@@H](OC(=O)c1ccncc1)c1cccc(OCCO)c1)c1cnc2ccccc2c1)C(C)C	0.807
COc1cccc(/C=C(\C#N)C(=O)Nc2c(C)n(C)n(-c3ccccc3)c2=O)c1	0.85

----------
System: glycogen synthase kinase-3 (GSK3A per assay name; protocol says GSK3B)
Experiment: GSK3 binders on small-molecule microarrays, primary screen, biochemical, small-molecule microarray, 635 nm fluorescence, GSK3A (AID 1103); further: the record names both GSK3A and GSK3B
Conditions: small-molecule microarray binding, fluorescence 635 nm; higher = more signal
Recorded composite z-score values for a group of compounds are listed next.

compound	composite z-score
CCCCCCCCCCC(O)C1C=CC2C(=O)N(c3ccccc3)C(=O)C2N1Nc1ccccc1F (configuration not stated)	-0.676
CCOC(=O)C[C@H]1[C@H](OC(=O)c2ccc(C(=O)c3ccccc3)cc2)[C@@H](NC(=O)CC(C)C)c2cc(OCCCO)ccc2N1C(=O)Cc1ccc(OC)cc1	0.231
COc1ccc(NC(=O)O[C@H]2[C@@H]3OC(=O)[C@H](Cc4cccc(Br)c4)C/C=C/C[C@@H](Cc4cccc(Br)c4)C(=O)O[C@H]3[C@@H](OC)O[C@@H]2CO)cc1	0.475
CCCCC(=C=CC[C@H](O)c1ccc(OCCO)cc1)C[C@H](O)c1cc(Cl)cc(Cl)c1O	0.11
C=C(COC)/C(=C/C[C@@H](OC(=O)c1ccncc1)c1ccccc1OCCO)c1cc(C(=O)OC)ccc1OC	-0.628
Cc1ccc(S[C@]2(C(=O)NC(C)C)CC(=O)N(C(C)C)[C@@H]2c2ccc(CO)cc2I)cc1	-0.498
C=CCC(OC(C)=O)[C@@H]1[C@@H](N(Cc2cc3ccccc3o2)C(=O)c2ccc(-c3ccccc3)cc2)c2cc(OCCCO)ccc2N1C(=O)Cc1ccc(OC)cc1 (some centres not stated)	-0.744

----------
Assay: E. coli growth modulation, two-sided OD650, primary screen, E. coli filamentation project, strain DRC41, 24 h (AID 1093);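 further: MC1000 strain lacking acrAB efflux and sulA so SOS filamentation is blocked; test concentration not given here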
Conditions: OD650, 24 h, higher = more signal, called active from +8 up or from −8 down
measuredProperty: z-score

compound	reported
CS(=O)(=O)CCOC(=O)C1=CC(CCCO)=CC(C2CC2)N(Cc2cccc(OC(F)(F)F)c2)C=C1C(=O)OCCS(C)(=O)=O (stereo not given)	-0.917
COCCCNC(=O)[C@@]1(c2ccc([N+](=O)[O-])cc2)CC(=O)N(C(C)C)[C@@H]1c1ccc(CO)cc1	0.409
CCOC(=O)C[C@H]1[C@H](OC(=O)c2cc3ccccc3oc2=O)[C@@H](NC(=O)c2ccc3ccccc3c2)c2cc(OCCCO)ccc2N1C(=O)Cc1ccc(OC)cc1	-0.436
C=CCN1C(=O)[C@]2(O[C@H](CCO)[C@@H]([Si](C)(C)c3ccc(OC)cc3)[C@@H]2C)c2cc(N3C(=O)COc4ccccc43)ccc21	1.64
CN(C)CCCC[C@@H]1NC(=O)[C@@H]2C[C@H](C(=O)O)[C@H](c3cccc(OCCO)c3)N2C1=O	0.802

Measured values drawn from PubChem BioAssay for this set.
